Tested on: CAKI-1 renal
Test: NCI-60 one-dose screen, 48 h (100 = growth as untreated, 0 = no growth, -100 = all killed)
Conditions: 10 µM unless noted
The panel holds about 83,000 compounds, 20% with a hit somewhere; the sample as a whole holds those more often.
Class membership depends on growth alone; the intervals are lowest = under 50%, middle = from 50% up to 90%, highest = 90% and over

Examples from the recorded data:
Cc1nn(-c2ccccc2)c(-n2ccnc2)c1/C=N/Nc1nc(-c2ccc(F)cc2)cs1
middle
CN(C)CCNc1nc2ccccc2c2c(=O)c3cc(F)ccc3sc12
lowest
CC1Cc2ccccc2N1NC(=O)c1ccc(Cl)c(S(N)(=O)=O)c1 (centres undefined)
highest
Cc1nc(S(=O)(=O)c2ccccc2)c(S(=O)(=O)Cc2ccc([N+](=O)[O-])cc2)o1
highest

Query: Using the reported growth, which band applies to COc1ccc(/C=C(\C#N)n2nnc3c(F)cccc32)cc1 ?
Reply: lowest

Query: Using the reported growth, which band applies to O=C(N/N=C/[C@H](O)[C@H](O)[C@H](O)CO)c1ccc(NC(=O)c2cccnc2)cc1 ?
Reply: highest

Query: Using the reported growth, which band applies to C=C1C(=O)O[C@H]2[C@H]1CC/C(COC(=O)CCC(=O)NCCOCCOCC(=O)Nc1ccc(OC)c(C(N)=O)c1O)=C\CC[C@@]1(C)O[C@@H]21 ?
Reply: middle

Query: Using the reported growth, which band applies to Cc1nc2ccccc2n1-c1ncnc2c1CC(C)c1ccccc1N2C (centres undefined) ?
Reply: middle

These entries and their values trace back to PubChem BioAssay (NCI).
